Please provide measured screen value for the entries that follow.
B1: NOTCH4 peptide 1606-1621 (Neurogenic locus notch homolog protein 4), 16-mer library wild type / NSP9 (ORF1ab Nsp9, residues 4141-4253) (parent)
chain 1: QGAWLGAPEPWEPLLD
chain 2: NNELSPVALRQMSCAAGTTQTACTDDNALAYYNTTKGGRFVLALLSDLQDLKWARFPKSDGTGTIYTELEPPCRFVTDTPKGPKVKYLYFIKGLNNLNRGMVLGSLAATVRLQ

Variants of: B1
EXPERIMENTAL PARAMETERS: with NSP9 (ORF1ab Nsp9, residues 4141-4253); bait immobilised on MaxiSorp plates (10 µg), library pre-cleared on GST, 2 h binding at 4 °C, five washes; one round per day, days 1-4; value from days 2 and 3; keep out of graded; scale: average fractional NGS count over selection days 2 and 3

These solved cases illustrate the format of a correct answer.
{"SEQ TEXT": "chain 1 QAAWLGAPEPWEPLLD", "OBSERVATION TYPE": "screen value", "RESULT": 0}
{"SEQ TEXT": "chain 1 QGAWLGAPRPWEPLLD", "OBSERVATION TYPE": "screen value", "RESULT": "5.73e-05"}
{"SEQ TEXT": "chain 1 QGAWLWAPEPWEPLLD", "OBSERVATION TYPE": "screen value", "RESULT": 0}
{"SEQ TEXT": "chain 1 QGAWLGAPHPWEPLLD", "OBSERVATION TYPE": "screen value", "RESULT": "4.98e-05"}
{"SEQ TEXT": "chain 1 QGAWLGAPEPWEPDLD", "OBSERVATION TYPE": "screen value", "RESULT": "2.68e-05"}

Provide screen value values for the following items, in order.
1. chain 1 QGAWPGAPEPWEPLLD
2. chain 1 QGAWLNAPEPWEPLLD

Given back:
1. 3.64e-05
2. 0

Provide screen value values for the following items, in order.
1. chain 1 QGAWHGAPEPWEPLLD
2. chain 1 QGAWLHAPEPWEPLLD
3. chain 1 QRAWLGAPEPWEPLLD
4. chain 1 QGAWKGAPEPWEPLLD

Given back:
1: 0; 2: 0; 3: 1.21e-05; 4: 0
